Listed below: V u,brain values for each entry.
experiment: High-throughput brain slice method (Vu,brain); conditions: unbound volume of distribution in brain, measured in rat brain slices, LC-MS/MS (no fu,brain tabulated in Table S1)
Expressed in mL/g brain, but write only the number.

May I ask what V u,brain has been recorded for CNc1ccc(-c2cc3cc(O)ccc3o2)c([18F])n1 [[^18 F]AZD4694] ?
205

May I ask what V u,brain has been recorded for O=C(CCCN1CCC2(CC1)C(=O)NCN2c1ccccc1)c1ccc([18F])cc1 [[^18 F]Spiperone] ?
147

May I ask what V u,brain has been recorded for [11CH3]N1CCc2cc(Cl)c(O)cc2[C@@H](c2cccc3ccoc23)C1 [[^11C]NNC112] ?
70

----------
Listed below: V u,brain values for each entry.
assay: High-throughput brain slice method (Vu,brain); conditions: unbound volume of distribution in brain, measured in rat brain slices, LC-MS/MS (no fu,brain tabulated in Table S1)

COc1ccccc1N1CCN(CCN(c2ccccn2)[11C](=O)C2CCCCC2)CC1 [[^11C]WAY100635]
14 mL/g brain
Cc1ccc(C2CC3CCC(C2C(=O)O[11CH3])N3CC=CI)cc1 (centres unmarked) [[^11C]PE2I]
39 mL/g brain
[11CH3]Sc1ccc([C@H]2CN3CCC[C@H]3c3ccccc32)cc1 [[^11C]McN5652]
238 mL/g brain
Cc1ccc(Sc2ccccc2CN(C)[11CH3])c(N)c1 [[^11C]MADAM]
90 mL/g brain

Here is the next item to consider.
May I ask what V u,brain has been recorded for COC(=O)[C@H]1[C@@H](c2ccc(I)cc2)C[C@@H]2CC[C@H]1N2CCC[18F] [[^18 F]FP-CIT] ?
36 mL/g brain

----------
assay: High-throughput brain slice method (Vu,brain); settings: unbound volume of distribution in brain, measured in rat brain slices, LC-MS/MS (no fu,brain tabulated in Table S1)
metric: V u,brain (mL/g brain)
Expressed in mL/g brain, but write only the number.

Cc1ccc(N2CCN([11CH3])CC2)c2oc(C(=O)Nc3ccc(N4CCOCC4)cc3)cc(=O)c12 [[^11C]AZ10419369]
30
C[C@@H](N[C@@H]1C[C@H](c2cccc(O[11CH3])c2)N(c2ccc(C(F)(F)F)cc2)C1=O)c1ccccc1 [[^11C]MePPEP]
296
Cc1ccc([C@H]2C[C@@H]3CC[C@H]([C@H]2C(=O)OCC[18F])N3C/C=C/I)cc1 [[^18 F]FE-PE2I]
62

Here is the next item to consider.
May I ask what V u,brain has been recorded for [11CH3]Nc1ccc(-c2nc3ccc(O)cc3s2)cn1 [[^11C]AZD2184] ?
33
